B1: TPR 5TU (parent)
chain: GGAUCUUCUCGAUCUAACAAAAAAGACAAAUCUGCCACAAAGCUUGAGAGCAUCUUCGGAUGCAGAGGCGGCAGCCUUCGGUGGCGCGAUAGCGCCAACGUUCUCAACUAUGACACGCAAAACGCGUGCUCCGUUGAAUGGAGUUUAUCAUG

variants of: B1; assay: polymerase ribozyme fitness, log enrichment relative to wild type (log ratio); higher = more active; in vitro selection for triplet polymerase activity
Variants at the floor of the assay were thinned out.
reportedMetric: polymerase ribozyme fitness (log ratio)
Give bare numbers.

mutationSpec: C35U G46A A119G A121U
polymerase ribozyme fitness (log ratio): -1.45
--
mutationSpec: G50A U56G C85U A115C U144G
polymerase ribozyme fitness (log ratio): -2.74
--
mutationSpec: G58U G141A
polymerase ribozyme fitness (log ratio): 1.05

Okay, here is my list. What is polymerase ribozyme fitness (log ratio) for each of these?
1. U13C A91U A120U
2. U9C C76U
3. A12G G83U G92U A142G

[A]
[-3.86, -2.74, -2.93]
